Tested on: RXF 393 renal
Test Description: NCI tumour cell line growth inhibition, 48 h
Some compounds, each annotated with its measured TGI.

| Compound | Tested On | TGI |
| --- | --- | --- |
| CC(=O)O[C@H](C[C@H](C(C)C)N(C)C(=O)[C@@H](NC(=O)[C@H]1CCCCN1C)C(C)C)c1nc(C(=O)N[C@@H](Cc2ccccc2)C[C@H](C)C(=O)O)c(C(C)C)s1 | RXF 393 renal | > 33.3 µM |
| COc1ccc(N=C2C(=Nc3ccc(OC)cc3)N(S(=O)(=O)c3ccccc3)C(=S)N2c2ccccc2)cc1 | RXF 393 renal | > 100 µM |
| CN(C)c1ncnc2c1nnn2C1OC(CO)C(O)C1O (centres undefined) | RXF 393 renal | > 100 µM |
| C[C@]12CCc3nonc3C1CC[C@@H]1C2CC[C@]2(C)NC(=O)CCC12 (some centres undefined) | RXF 393 renal | > 100 µM |

---

System: SK-MEL-2 melanoma
Test Description: NCI tumour cell line growth inhibition, 48 h
Quick reference: TGI of the listed items.
Measure Name: TGI

| Compound | Reported Value |
| --- | --- |
| Cc1c(-c2nnc(-c3ccc(Cl)cc3)o2)c(=O)n(-c2ccccc2)n1C | > 100 µM |
| Cc1cccc(C(=O)/C=C/SC(=NC#N)SCc2ccccc2)c1 | > 100 µM |
| CCN(CC)CCCNc1nc(=O)[nH]c(C)c1C(=O)Nc1c2ccccc2nc2ccccc12 | > 100 µM |
| CCOC(=O)[C@H]1Nc2c(cccc2[N+](=O)[O-])[C@H]2OCC[C@@H]12 | > 100 µM |
| O=C(Nc1cccc(Oc2nnc(Cl)c3ccccc23)c1)Nc1ccc(Cl)c(C(F)(F)F)c1 | 3.24 µM |
| CC(=O)O[C@]1(C)OC(=O)[C@@H](C)N1[N+](=O)[O-] | > 100 µM |
| Nc1ccc(N=Nc2ccc(-c3ccc(O)cc3)cc2)c2ccc(S(=O)(=O)O)cc12 | > 100 µM |
| Cc1ccc(/C(=C\C(=O)C(=O)NC23CC4CC(CC(C4)C2)C3)Sc2ccccc2)cc1 | > 10 µM |
| CC(=O)Nc1ccc(CNc2cc(=O)n(C)c(=O)[nH]2)cc1 | > 100 µM |
| O=c1oc2ccccc2c(O)c1C1c2c(c3ccccc3oc2=O)Oc2c1c(=O)oc1ccccc21 | > 100 µM |
| O=C(Nc1ccc(Cl)cc1F)c1cc(I)ccc1O | 4.25 µM |
| COc1ccc(C(=O)C(C(=O)C(=O)Nc2ccc(Cl)c(Cl)c2)c2ccc(OC)cc2)cc1 (stereo not given) | > 100 µM |
| CN(N=O)C(=O)N[C@@H](C=O)[C@@H](O)[C@H](O)[C@H](O)CO | > 750 µM |
| O=C(Nc1ccc(Oc2ccc3nc(NC(=O)c4ccccc4)[nH]c3c2)cc1)Nc1cc(C(F)(F)F)ccc1F | 3.63 µM |
| Cn1cc(-c2cnc(-c3cn(C)c4ccccc34)cn2)c2ccccc21 | > 71.2 µM |
| CCSC1(SCC)CC(Cc2ccc(OC)cc2)N(C=NC(C)(C)C)C1 (stereo not given) | > 100 µM |
| C/C(=N\N=C(\[Se])N1CCN(c2ccccn2)CC1)c1ccccn1 | 2.36 µM |
| O=C1c2ccccc2-c2c1c(-c1ccc([N+](=O)[O-])cc1)nc1ccc3ccccc3c21 | > 100 µM |
| Nc1c(-c2nc3ccccc3o2)sc(=S)n1-c1ccc(Cl)cc1 | 47.8 µM |
| C/C1=C/C2=CC(C)C[C@@H]2C(=O)[C@]2(C)C(=O)CC(C)(C)[C@H]2CC1=O (stereo not given in full) | > 50 µM |
| CN(C)c1ncnc2c1nnn2C1OC(CO)C(O)C1O (stereo not given) | 0.773 µM |
| O=C1Nc2ccccc2S/C1=C\c1cccc(C(F)(F)F)c1 | > 100 µM |
| Cc1cc2c(cc1C)[n+](=O)c(C#N)c(Cl)n2[O-] | 92.5 µM |
| ClCCN1CCOC1=Nc1ccc2c(c1)CCCC2 | 38.1 µM |
| c1ccc(-c2cc(C3CO3)c3ccccc3n2)cc1 (stereo not given) | 34.6 µM |
| O=C(c1ccco1)c1nc2cc(F)ccc2[n+]([O-])c1C(F)(F)F | 50.3 µM |
| O=[N+]([O-])c1ccc2c(c1)Nc1c3ccccc3nc3cccc-2c13 | 39.5 µM |
| CC1CCC(O)(C(C)(C(=O)O)c2ccccc2)CC1 (stereo not given) | > 100 µM |
| CSC1=NC(C(N)=O)C(N)N1C (stereo not given) | > 100 µM |
| CCN1C(=O)NC(=O)C(C)(N2C(=O)c3c(F)c(F)c(F)c(F)c3C2=O)C1=O (stereo not given) | 21.6 µM |
| O=C1Nc2ccccc2S/C1=C\c1ccccc1C(F)(F)F | > 100 µM |
| O=c1cc(N2CCNCC2)oc2c(-c3ccccc3)cccc12 | > 100 µM |
| CN1C(=O)N/C(=C\c2ccc(S(=O)(=O)N/N=C\C(O)C(O)C(O)CO)cc2)C1=O (stereo not given) | > 100 µM |
| O=C(O)[C@@H]1CCC(=O)N1C(c1ccc2c(c1)OCO2)c1ccc2c(c1)OCO2 | > 100 µM |
| CC(C)(C#N)c1cc(F)cc(C(=O)Nc2cc(Nc3ncccc3-c3ncnc4nc[nH]c34)ccc2F)c1 | 1.17 µM |
| CNC(=O)c1ccc2cc(C3(O)CCn4cncc43)ccc2c1 (stereo not given) | > 100 µM |
| O=C(O)C1=C(C(=O)O)N(c2ccncc2)C(c2ccco2)=CC1c1ccccc1[N+](=O)[O-] (stereo not given) | 37.3 µM |
| CC(C)(C)CC(C)(C)c1cc2c(O)c(c1)Cc1cc(C(C)(C)CC(C)(C)C)cc(c1O)Cc1cc(C(C)(C)CC(C)(C)C)cc(c1O)Cc1cc(C(C)(C)CC(C)(C)C)cc(c1O)Cc1cc(C(C)(C)CC(C)(C)C)cc(c1O)Cc1cc(C(C)(C)CC(C)(C)C)cc(c1O)C2 | > 100 µM |
| CC(=O)c1cccc(NC(=O)C(=O)C(C2OC(=O)c3ccccc32)[N+](=O)[O-])c1 (stereo not given) | > 100 µM |
| O=c1cccccc1NCCCCCCNc1cccccc1=O | > 100 µM |
